Taken from PubChem BioAssay (EPA / NIEHS).

# test: ATG_CRE_CIS: Attagene CIS-FACTORIAL HepG2 Assay for human cAMP Responsive Element (CRE) binding protein 3 (AID 2282926)
# measurement_parameters: HepG2 CRE cis-reporter, Attagene multiplexed mRNA; actives raise or lower the signal
Calls of active or inactive are those of the source. The calls were made as follows: active = hit-call score of the fitted dose curve at least 0.9, where 1 is the maximum; inactive = score below 0.9.
Parameter call: string, one of true for active, false for inactive

>>> label_class("COC(O)c1ccccc1 (stereo not given)")
"false"
>>> label_class("CC(O)COc1ccccc1 (stereo not given)")
"false"
>>> label_class("N=C(N)c1ccc(OCCCCCOc2ccc(C(=N)N)cc2)cc1")
"false"
>>> label_class("CN(C)CCOC(c1ccccc1)c1ccccc1")
"false"
>>> label_class("CC(C)[C@@H]1CC[C@@H](C)C[C@H]1O")
"false"

Which outcome did this test record for the compound O=C1OC(=O)c2cc(-c3ccc4c(c3)C(=O)OC4=O)ccc21 ? false

Also check CCCCCCCCCCCCCCCCCC[N+](C)(C)Cc1ccccc1 false

Also check COC(=O)CC(C(C)=O)C(=O)OC (stereo not given) false

Also check CC1COCc2cc3c(cc21)C(C)(C)C(C)C3(C)C (stereo not given) false

Also check O=C(O)c1cccc(C(=O)O)n1 false

Also check CCCCCc1ccc(O)cc1 false

Also check OCC1CCC(CO)CC1 (stereo not given) false
